# credit: PubChem BioAssay (EPA / NIEHS)

STUDY TARGET: Nuclear receptor subfamily 4 group A member 2 (Homo sapiens) (UniProt P43354)
Sequence (P43354 whole entry, looked up): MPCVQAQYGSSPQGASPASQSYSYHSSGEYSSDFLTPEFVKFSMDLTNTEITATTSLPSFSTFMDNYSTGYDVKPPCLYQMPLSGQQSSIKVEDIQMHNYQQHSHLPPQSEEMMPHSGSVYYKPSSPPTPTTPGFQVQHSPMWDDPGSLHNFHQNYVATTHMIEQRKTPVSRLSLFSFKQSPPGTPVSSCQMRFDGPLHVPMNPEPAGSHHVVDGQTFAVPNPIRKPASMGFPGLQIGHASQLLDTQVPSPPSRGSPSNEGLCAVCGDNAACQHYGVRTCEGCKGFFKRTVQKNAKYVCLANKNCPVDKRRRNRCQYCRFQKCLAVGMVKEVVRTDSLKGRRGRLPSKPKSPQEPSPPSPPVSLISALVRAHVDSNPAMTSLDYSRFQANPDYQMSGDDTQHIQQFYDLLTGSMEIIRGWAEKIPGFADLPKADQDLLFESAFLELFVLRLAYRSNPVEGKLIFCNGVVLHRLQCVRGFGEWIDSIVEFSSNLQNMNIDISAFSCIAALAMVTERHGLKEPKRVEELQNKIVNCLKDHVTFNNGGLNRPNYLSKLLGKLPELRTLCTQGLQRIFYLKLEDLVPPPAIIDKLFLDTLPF
PROTOCOL TEXT: ATG_NURR1_TRANS: Attagene TRANS-FACTORIAL HepG2 Assay for human Nuclear Receptor Related Protein 1 (NURR1) (AID 2282985)
MEASUREMENT PARAMETERS: HepG2 Attagene TRANS reporter, mRNA readout
Inconclusive results are not listed. Active and inactive are the calls of the source. How the source made its calls: active means hit-call score of the fitted dose curve at least 0.9, where 1 is the maximum; inconclusive means response in the unintended direction; inactive means score below 0.9.
Outcome field: choose from YES = active, NO = inactive

// query Just curious, what result did `CCOP(=S)(OCC)SCSc1ccc(Cl)cc1` get here?
// result NO

// query # fetch the recorded call for `Cn1[nH]nnc1=S` here
// result NO

// query Kindly provide the recorded test outcome for the following compound: `O=P(Oc1ccccc1)(Oc1ccccc1)Oc1ccccc1`
// result YES

// query I'd appreciate the recorded outcome for `CCOP(=S)(OCC)SCSCC` from this test.
// result NO

// query What did the test return for `CCCCN(CCCC)SN(C)C(=O)Oc1cccc2c1OC(C)(C)C2` ?
// result NO

// query Any idea what this test logged for `CC1(C)CN=C(NN=C(/C=C/c2ccc(C(F)(F)F)cc2)/C=C/c2ccc(C(F)(F)F)cc2)NC1` ?
// result NO

* * *

STUDY TARGET: human Phosphodiesterase 10 (PDE10), PDE10A (gene 10846) (UniProt Q9Y233)
Sequence (Q9Y233 whole entry, looked up): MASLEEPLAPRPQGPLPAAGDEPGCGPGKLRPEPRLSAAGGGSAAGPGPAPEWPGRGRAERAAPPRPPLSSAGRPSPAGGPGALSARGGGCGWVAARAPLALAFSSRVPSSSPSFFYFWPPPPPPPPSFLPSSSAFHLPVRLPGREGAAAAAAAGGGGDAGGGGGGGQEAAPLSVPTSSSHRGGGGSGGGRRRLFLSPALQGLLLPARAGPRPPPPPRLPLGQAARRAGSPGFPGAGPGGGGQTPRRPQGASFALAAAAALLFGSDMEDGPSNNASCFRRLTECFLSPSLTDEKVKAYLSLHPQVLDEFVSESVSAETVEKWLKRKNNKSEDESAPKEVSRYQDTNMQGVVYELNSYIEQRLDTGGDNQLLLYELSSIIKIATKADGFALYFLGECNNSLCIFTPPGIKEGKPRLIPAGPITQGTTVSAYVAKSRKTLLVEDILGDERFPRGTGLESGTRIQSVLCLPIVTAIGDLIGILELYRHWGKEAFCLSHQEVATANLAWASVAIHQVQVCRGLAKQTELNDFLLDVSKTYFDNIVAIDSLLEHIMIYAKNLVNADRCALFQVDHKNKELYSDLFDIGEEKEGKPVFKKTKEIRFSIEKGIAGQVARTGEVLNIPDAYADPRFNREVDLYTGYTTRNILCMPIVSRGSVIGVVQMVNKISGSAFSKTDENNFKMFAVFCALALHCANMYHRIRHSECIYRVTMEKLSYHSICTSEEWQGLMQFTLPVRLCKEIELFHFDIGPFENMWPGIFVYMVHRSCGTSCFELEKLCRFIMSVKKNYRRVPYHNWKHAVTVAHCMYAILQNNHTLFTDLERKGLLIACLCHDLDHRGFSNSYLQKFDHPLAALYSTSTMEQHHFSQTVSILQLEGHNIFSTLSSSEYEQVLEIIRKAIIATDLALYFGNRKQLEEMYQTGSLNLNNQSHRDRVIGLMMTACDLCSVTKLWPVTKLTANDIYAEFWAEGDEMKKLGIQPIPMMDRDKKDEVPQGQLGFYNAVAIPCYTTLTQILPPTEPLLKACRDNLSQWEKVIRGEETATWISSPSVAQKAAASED
PROTOCOL TEXT: NVS_ENZ_hPDE10: NovaScreen (NVS) Enzymatic Assay for human Phosphodiesterase 10 (PDE10) (AID 2283195)
Inconclusive results are not listed. The source made the active and inactive calls. How the source made its calls: active means hit-call score of the fitted dose curve at least 0.9, where 1 is the maximum; inconclusive means response in the unintended direction; inactive means score below 0.9.
EXPERIMENTAL ENDPOINT: AC50

Reference set (4 entries):
{"MOLECULE": "O=[N+]([O-])c1cc(Cl)ccc1Cl", "AC50": "inactive"}
{"MOLECULE": "CC(Cl)CN(C)C (stereo not given)", "AC50": "inactive"}
{"MOLECULE": "Cc1ccc2c(c1N)C(=O)c1ccccc1C2=O", "AC50": "5.53 µM (active)"}
{"MOLECULE": "N#C/C=C/c1ccccc1", "AC50": "inactive"}

Now turn to the next molecule.
// query Any idea what AC50 was measured for `Cc1cc(C)c(C(=O)P(=O)(c2ccccc2)c2ccccc2)c(C)c1` ?
// result 0.687 µM (active)

* * *

Read-out: Matrix Metallopeptidase 1 (MMP1), MMP1 (gene 4312)
PROTOCOL TEXT: BSK_MyoF_MMP1: BioMAP Diversity Plus: MyoF Assay for Matrix Metallopeptidase 1 (MMP1) Biomarker Activity (AID 2284268)
MEASUREMENT PARAMETERS: primary human lung fibroblasts
The source made the active and inactive calls. Rule for the calls: active = hit-call score of the fitted dose curve at least 0.9, where 1 is the maximum; inactive = score below 0.9.
Mark one answer only. Choices: true (1) for active, false (0) for inactive

// query Hello, I am checking results. What call was entered for CCCCC(CC)COP(=O)(Oc1ccccc1)Oc1ccccc1 (configuration not stated) ?
// result true (1)

// query Write down the call the test reported for this compound. Item: O=C(O)C(F)(OC(F)(F)C(F)(F)C(F)(F)F)C(F)(F)F (configuration not stated)
// result false (0)

// query Please let me know the test result on file for FC(F)(F)C(F)(C(F)(F)F)C(F)(F)C(F)(F)CC1CO1 (configuration not stated) .
// result false (0)

// query # lookup: test call for `CCCCOCCOP(=O)(OCCOCCCC)OCCOCCCC`
// result false (0)

// query Recorded test call requested for `NC(=O)C(F)(F)C(F)(F)F`
// result false (0)

// query Tell me the recorded outcome of this test for `ClC(Cl)=C(c1ccc(Cl)cc1)c1ccccc1Cl` .
// result true (1)

// query Field: outcome | Entry: `CCOP(=S)(S)OCC`
// result false (0)

// query Could you check what this test reported for `c1ccc2c(c1)sc1ccccc12` ?
// result false (0)

// query Please let me know the test result on file for `Cc1c([N+](=O)[O-])cc2c(c1[N+](=O)[O-])C(C)(C)CC2(C)C` .
// result true (1)

// query Called result for `N#Cc1c(-c2ccc(Cl)cc2)[nH]c(C(F)(F)F)c1Br`
// result false (0)

// query Hi, do you know how `O=S(=O)(F)C(F)(F)C(F)(F)C(F)(F)C(F)(F)C(F)(F)C(F)(F)C(F)(F)C(F)(F)F` came out in this test?
// result false (0)

// query In this assay, the call recorded for `COP(=O)(O)OC` was what?
// result false (0)
